Experiment Description: Half life in DBA1 mouse spleen at 5 mg/kg, po
Format: ADME, organism-based
Set-up: dose 5 mg/kg, route oral
Quantity: half-life (h)

record_smiles=COc1c(C)cnc(Cn2cc(C#CCC(C)(C)O)c3c(Cl)nc(N)nc32)c1C quantity=half-life measurement=2

----------
Experiment Description: Intrinsic clearance in rat liver microsomes
Assay type: ADME, Microsome
Condition: read-out: CLH
Quantity: CLint scaled (mL/min/kg)

molecule=COc1c(C)cnc(Cn2cc(C#CCC(C)(C)O)c3c(Cl)nc(N)nc32)c1C quantity="CLint scaled" unit_name=mL/min/kg measurement=276
molecule="CCNC(=O)c1noc(-c2cc(C(C)C)c(O)cc2O)c1-c1ccc(CN2CCOCC2)cc1 [LUMINESPIB]" quantity="CLint scaled" unit_name=mL/min/kg measurement=219
molecule="CC1(C)CC(=O)c2c(C(F)(F)F)nn(-c3ccc(C(N)=O)c(N[C@H]4CC[C@H](O)CC4)c3)c2C1 [SNX-2112]" quantity="CLint scaled" unit_name=mL/min/kg measurement=54
